# assay-text: chemical genetic growth profiling, strain panel (AID 1159580);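 also: tested at 20 µM; growth read once vehicle control cultures reached saturation at 30 °C; 1 = growth at the plate median or of vehicle wells; lower values mean less growth of the strain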
# condition-parameters: S. cerevisiae deletion strains, growth OD, locus YLR342W, strain FKS1, active compounds read low
About 2,000 (36%) of roughly 5,500 compounds were called active. Not shown: some 18% with an inconclusive outcome. The list shows a part of the results.
Quick reference: normalized growth of the listed items.
metric: normalized growth

- compound: "CC(=O)O[C@H]1CC2CCC3C(CC[C@@]4(C)C3C[C@H]([N+]3(C)CCCCC3)[C@@H]4OC(C)=O)[C@@]2(C)C[C@@H]1N1CCCCC1 (stereo not given in full)"
  measured-value: 1.02
- compound: "Cn1c(=O)c2c(ncn2C)n(C)c1=O"
  measured-value: 0.983
- compound: "CC(=O)c1ccc[nH]1"
  measured-value: 0.999
- compound: "O=C(/C=C/c1ccc(O)cc1)c1ccc(O)cc1O"
  measured-value: 1
- compound: "CNC(=O)Oc1ccccc1OC(C)C"
  measured-value: 0.99
- compound: "CCCc1ncc(C[n+]2ccccc2C)c(N)n1"
  measured-value: 0.958
- compound: "O=C(/C=C/c1ccc(O)cc1)c1ccccc1O"
  measured-value: 0.315
- compound: "O=C(O)CC[N+](=O)[O-]"
  measured-value: 1.01
- compound: "CC(=O)OC[C@@]1(O)C[C@@]23CCC4c5ccoc5CC[C@]4(C)C2CC[C@@H]1C3 (stereo not given in full)"
  measured-value: 1.01
- compound: "C[C@H]1C(=O)CCC2[C@]3(C)CC[C@@]4(C)C5CC(C)(C)CC[C@]5(C)CC[C@]4(C)C3CC[C@@]21C (stereo not given in full)"
  measured-value: 1
- compound: "COC1=CC23CCCN2CCc2cc4c(cc2C3C1O)OCO4 (stereo not given)"
  measured-value: 1.02
- compound: "CC(=CC1CCC(C)C2C1=C(C)CC2O)C(=O)O (stereo not given)"
  measured-value: 1.02
- compound: "COc1cc(O)c2c(c1)C(=O)c1cc(C)cc(O)c1C2=O"
  measured-value: 0.994
- compound: "O=C1C=C(O)c2ccccc2C1=O"
  measured-value: 0.948
- compound: "CC[C@H]1OC(=O)[C@H](C)[C@@H](O[C@H]2C[C@@](C)(OC)[C@@H](O)[C@H](C)O2)[C@H](C)[C@@H](O[C@@H]2O[C@H](C)C[C@H](N(C)C)[C@H]2O)[C@](C)(O)C[C@@H](C)/C(=N/OCOCCOC)[C@H](C)[C@@H](O)[C@]1(C)O"
  measured-value: 1.02
- compound: "COc1ccc([C@@H](C)C(=O)c2ccc(O)cc2O)cc1"
  measured-value: 0.96
- compound: "Cn1c(=O)[nH]c2nc[nH]c2c1=O"
  measured-value: 1
- compound: "COc1cc2c(cc1OC)C(C)NCC2 (stereo not given)"
  measured-value: 0.982
- compound: "COc1ccc(CC(=O)c2ccc(O)cc2O)cc1"
  measured-value: 0.972
- compound: "COC(=O)CC1C(C)(C(=O)c2ccoc2)CC2OCC34C(CC(=O)OC)C5(C)CC36OC3(C)OC1(C(OC(C)=O)C6(OC(C)=O)C5OC(=O)C(C)C)C24O3 (stereo not given)"
  measured-value: 0.963
- compound: "COc1cc(O)ccc1C(C)=O"
  measured-value: 1.03
- compound: "O=C(CCc1ccc(O)cc1)c1c(O)cc(O)cc1O"
  measured-value: 1.01
- compound: "O=C(N[C@@H](CO)[C@H](O)c1ccc([N+](=O)[O-])cc1)C(Cl)Cl"
  measured-value: 1.01
- compound: "COc1ccccc1OCC(O)COC(N)=O (stereo not given)"
  measured-value: 0.981
- compound: "CC(C)[C@@H]1CC[C@@H](C)CC1=O"
  measured-value: 0.995
- compound: "O=c1c(O)c(-c2ccccc2)oc2cccc(O)c12"
  measured-value: 0.827
- compound: "OC[C@H]1O[C@@H](Oc2ccc(O)cc2)[C@H](O)[C@@H](O)[C@@H]1O"
  measured-value: 1.01
- compound: "CC(=O)CCCCn1c(=O)c2c(ncn2C)n(C)c1=O"
  measured-value: 1.01
- compound: "CN1CCC[C@H]1c1cccnc1"
  measured-value: 1.02
- compound: "Cn1c(=O)[nH]c2ncn(C)c2c1=O"
  measured-value: 0.975
- compound: "NS(=O)(=O)c1cc2c(cc1Cl)NCNS2(=O)=O"
  measured-value: 1
- compound: "O=C(/C=C/c1ccccc1)c1ccc(O[C@@H]2O[C@H](CO)[C@@H](O)[C@H](O)[C@H]2O)cc1O"
  measured-value: 0.865
- compound: "CN1CCCCC1c1ccc(-c2cccnc2)nc1 (stereo not given)"
  measured-value: 0.971
- compound: "CC(C)N1C(=O)c2ccccc2NS1(=O)=O"
  measured-value: 0.98
- compound: "O=C(/C=C/c1ccccc1)c1ccc(O)cc1O"
  measured-value: 0.064
- compound: "O=C1c2ccccc2C(=O)c2ccccc21"
  measured-value: 1.01
- compound: "CC1=C(C(=O)O)N2C(=O)[C@@H](NC(=O)[C@@H](N)c3ccc(O)cc3)[C@H]2SC1"
  measured-value: 1.03
- compound: "NNCc1ccccc1"
  measured-value: 0.981
- compound: "C=C[C@H]1CN2CC[C@H]1C[C@H]2[C@H](O)c1ccnc2ccccc12"
  measured-value: 0.985
- compound: "ClC1C(Cl)C(Cl)C(Cl)C(Cl)C1Cl (stereo not given)"
  measured-value: 0.89
- compound: "O=C(c1ccccc1)c1ccc2n1CCC2C(=O)O (stereo not given)"
  measured-value: 1
- compound: "CO/N=C(/C(=O)NC1C(=O)N2C(C(=O)OCOC(=O)C(C)(C)C)=C(/C=C\\c3scnc3C)CSC12)c1csc(N)n1 (stereo not given)"
  measured-value: 1.01
- compound: "O=C(Nc1ccc([N+](=O)[O-])cc1Cl)c1cc(Cl)ccc1O"
  measured-value: 0.967
- compound: "CN1CCN(C2=Nc3cc(Cl)ccc3Nc3ccccc32)CC1"
  measured-value: 0.953
- compound: "CCCCCCCCCCCCCCCC(=O)OC[C@H](NC(=O)C(Cl)Cl)[C@H](O)c1ccc([N+](=O)[O-])cc1"
  measured-value: 1.01

The reported measurements were obtained from PubChem BioAssay AID1159580.
